Would you kindly list growth for each of these compounds?
- Tested on: COLO 205 colon
- Experiment Summary: NCI-60 one-dose screen, 48 h (100 = growth as untreated, 0 = no growth, -100 = all killed)
- Condition Context: 10 µM unless noted
The panel holds about 83,000 compounds, 20% with a hit somewhere; the sample as a whole holds those more often.
Answers are plain numbers, in %.

1) Cc1cc(O)cc(O)c1N=NC1=NCCS1 | 100
2) O=[N+]([O-])c1ccc(N=Nc2c(O)c(N=Nc3cc([N+](=O)[O-])cc([N+](=O)[O-])c3O)cc(N=Nc3cc(S(=O)(=O)O)cc4cc(S(=O)(=O)O)cc(O)c34)c2O)cc1 | 108
3) CCOC(=O)c1c(-c2ccc(O)cc2)c(C#N)c2c(C#N)c(N)nn2c1N | 74.6
4) NC(=O)CN1C(=O)c2ccccc2C1=O | 110
5) O=C(CSC(=S)N1CCCCC1)Nc1ccccc1 | 112
6) Cc1cccc2nc3c(n12)C(=O)C(=O)c1ccccc1-3 | 98.3
7) COC(=O)c1nc(-c2ccccc2)oc1S(=O)(=O)n1nc(-c2ccccc2)cc1N | -8.05
8) NS(=O)(=O)c1ccc(-n2nc(-c3ccccc3)ccc2=O)cc1 | 125
9) O=C1C(Cl)=C(NCCCN(CCCNC2=C(Cl)C(=O)c3ccccc3C2=O)C2=C(Cl)C(=O)c3ccccc3C2=O)C(=O)c2ccccc21 | -13.8
10) N#Cc1c(-c2ccc(F)cc2)nc(N/N=C/c2cccc(O)c2)nc1N1CCOCC1 | 73.4

I have 2 compounds here; please give me growth for each one.
1. CCSc1ccc(C2C(Br)C(=O)N2c2cc(OC)c(OC)c(OC)c2)cc1 (stereo not drawn)
2. C=C(C)[C@@H]1CC[C@]2(C(=O)OCCOCCOCC[P+](c3ccccc3)(c3ccccc3)c3ccccc3)CC[C@]3(C)[C@H](CC[C@@H]4[C@@]5(C)CC[C@H](OC(=O)C(Cl)Cl)C(C)(C)[C@@H]5CC[C@]43C)[C@@H]12

1. -38.5
2. -83.7

I have 4 compounds here; please give me growth for each one.
1. Cc1ccc(C(=O)O)o1
2. Oc1c(CCl)cc(Cl)cc1Cc1cc(Cl)cc(Cc2cc(Cl)cc(CCl)c2O)c1O
3. COc1ccc(NC(=O)Nc2ccc(Nc3nc(C)cc(Nc4ccc(C)cc4)n3)cc2)cc1
4. O=C(O)c1cn(C2CC2)c2cc(N3CCN(C(=O)CSc4nnc(-c5ccc(Cl)cc5)n4-c4ccccc4)CC3)c(F)cc2c1=O

107
68.3
-78.7
109

----------
- Test system: 786-0 renal
- Experiment Summary: NCI-60 one-dose screen, 48 h (100 = growth as untreated, 0 = no growth, -100 = all killed)
- Condition Context: 10 µM unless noted
The panel holds about 83,000 compounds, 20% with a hit somewhere; the sample as a whole holds those more often.
Would you kindly list growth for each of these compounds?
One number for each entry, in %.

Would you please look over these solved cases?
1) CCCn1c2cc(OCc3cn(-c4ccc(Br)cc4)nn3)ccc2c2ccnc(C)c21 | 36.7
2) COc1ccc2c(c1)/C(=C1\S/C(=N/c3nnc(C)s3)NC1=O)C(=O)N2Cc1ccc(Cl)cc1 | 49.2

I have 2 compounds here; please give me growth for each one.
1. O=C(Nc1ccc2ncnc(Nc3ccc(F)c(Cl)c3)c2c1)c1ccccc1
2. COC(=O)[C@]1(C)CCC[C@]2(C)[C@H]3C[C@H]4C(C(C)C)=C[C@]3(CC[C@H]21)[C@@H]1C(=O)N(CCC#N)C(=O)[C@@H]14

[47.7, 99.7]

----------
Would you kindly list growth for each of these molecules?
- System: RPMI-8226 leukemia
- Experiment Summary: NCI-60 one-dose screen, 48 h (100 = growth as untreated, 0 = no growth, -100 = all killed)
- Condition Context: 10 µM unless noted
This is part of a sample that, as a whole, favours compounds with a hit. Of some 83,000 tested, about 20% had one in any assay.
Numbers only, in %.

Would you please look over these solved cases?
1. CCc1c(C(=O)N[C@@H](C(=O)OCc2ccccc2)C(C)O)[nH]c2ccc(Cl)cc12 (stereo partly specified) | 82.7
2. S=C(Nc1ccccc1)c1ccccn1 | 56.5
3. CCC[S@](=O)c1ccc2nc(NC(=O)OC)[nH]c2c1 | 96.4
4. c1ccc(Sc2ncccn2)nc1 | 65.6
5. CCCCn1c(=O)c(/C=C/C(=O)/C=C/c2ccc(OC)cc2)cc2cc(Cl)ccc21 | -18.7

# input molecule: COc1ccc2[nH]c(-c3ccccc3)c(C=C(C#N)C#N)c2c1 ; wanted: its growth
-50.2

----------
- Tested on: SN12C renal
- Experiment Summary: NCI-60 one-dose screen, 48 h
- Condition Context: 10 µM unless noted
This is part of a sample that, as a whole, favours compounds with a hit. Of some 83,000 tested, about 20% had one in any assay. Active and inactive are the calls of the source. The calls were made as follows: active = growth percent below 10; inactive = the rest.
# output must be one of active, inactive

Recorded results for 6 molecules are shown here.
1. CCCCC1=c2c([nH]c3ccc(OC)cc23)=NC2C=CC=NC12 (stereo not given) | inactive
2. Clc1ccc2c(NCCCNC3CCCCC3)ccnc2c1 | inactive
3. O=CN1N=C(c2ccc(F)cc2)CC1c1cccc(Nc2ccnc3cc(C(F)(F)F)ccc23)c1 (stereo not given) | inactive
4. COc1ccccc1C(=O)/C=C/c1cc2cccc(OC)c2[nH]c1=O | active
5. COc1cc(C2=N/C(=C\c3cc4ccccc4nc3Oc3ccccc3)C(=O)N2C(=N)N)cc(OC)c1OC | inactive
6. O=Cc1[nH]c(Sc2ccccc2)c2ccccc12 | inactive

Identify the outcome logged in this assay for the molecule shown: CN1CCN(S(=O)(=O)O[C@@H]2C(=O)N(c3cc4c5ccccc5ccc4c4ccccc34)[C@H]2c2ccc(F)cn2)CC1
inactive

Identify the outcome logged in this assay for the molecule shown: COc1ccc2nc(-c3ccc(OC)c(OC)c3)cc(-c3nnc(SCC(=O)Nc4ccc(/C(C)=N\O)cc4)n3-c3ccccc3)c2c1
inactive

Identify the outcome logged in this assay for the molecule shown: CCC1S/C(=N\N=C(/C)c2ccc[nH]2)N(c2ccccc2)C1=O (stereo not given)
inactive

Identify the outcome logged in this assay for the molecule shown: COc1ccc(NC(=O)c2ccc(Nc3ncnc4[nH]c(C)c(C)c34)cc2)cc1
inactive

----------
- Tested on: NCI-H226 lung
- Experiment Summary: NCI-60 one-dose screen, 48 h (100 = growth as untreated, 0 = no growth, -100 = all killed)
- Condition Context: 10 µM unless noted
Compounds without any hit were thinned out: in the full panel of roughly 83,000, 20% have a hit.
Measured Metric: growth (%)
One number for each entry, in %.

Would you please look over these solved cases?
1) N#CC(C#N)=C1NC(c2ccccc2)=C(c2ccccc2)C(c2ccccc2Cl)=C1C#N | 108
2) COc1cc(C2=NN(C(C)=O)C(c3cccc(Nc4ccnc5cc(C(F)(F)F)ccc45)c3)C2)cc(OC)c1OC (centres undefined) | 66.5
3) O=C1NN(c2ccccc2)C(c2ccc(Cl)cc2)N2CCC[C@H]12 (some centres undefined) | 95.6
4) CCOC(=O)c1c(C)nc2c(c1N)/C(=C/c1cccs1)C(=O)N2c1ccc(OC)cc1 | 40.5
5) COCCOCCOCc1n(Cc2ccc3ccccc3c2)c2ccccc2[n+]1Cc1ccc2ccccc2c1 | 17.2
6) O=C(CCc1nnco1)c1nc2ccc([N+](=O)[O-])cc2[nH]1 | 99.4
7) O=C(Nc1ccc2ncnc(Nc3cccc(C(F)(F)F)c3)c2c1)c1cccs1 | 67.6
8) COc1cc(C)ccc1Oc1nc(Nc2ccc(N3CCOCC3)cc2)ncc1N=Cc1cc(C(F)(F)F)cc(C(F)(F)F)c1 | 55.4
9) CCCn1c2cc(OCc3cn(-c4ccc(Cl)cc4)nn3)ccc2c2ccnc(C)c21 | 69.5
10) Cc1ccc(C(=O)O)o1 | 104

I have 4 molecules here; please give me growth for each one.
1. O=C1C(Cl)=C(NCCCN(CCCNC2=C(Cl)C(=O)c3ccccc3C2=O)C2=C(Cl)C(=O)c3ccccc3C2=O)C(=O)c2ccccc21
2. COc1ccc2oc(=O)cc(-c3c(C#N)c(N)n4nc(N)c(C#N)c4c3C#N)c2c1
3. CCOC(=O)c1c(-c2ccc(O)cc2)c(C#N)c2c(C#N)c(N)nn2c1N
4. O=c1cc(/C=N\Nc2nc(-c3ccc(Cl)cc3Cl)cs2)c2cc(Cl)ccc2o1

1: 88.1; 2: 95.4; 3: 69.3; 4: 87.9

I have 4 molecules here; please give me growth for each one.
1. COc1cc(/C=C/CO)cc(OC)c1O[C@@H]1O[C@H](CO)[C@@H](O)[C@H](O)[C@H]1O
2. O=c1c2ccccc2oc2ccc(OCCCCCCN3CCCCCC3)cc12
3. COc1ccc(-c2cn(-c3ccc(Cl)cc3)c(=S)[nH]2)cc1OC
4. Cc1cc(C)c(NC(=O)c2sc3nc4c(cc3c2N)CCCCCC4)c(C)c1

1. 86.2
2. 74.1
3. 63.2
4. 75.6

# input molecule: C=C(C)[C@@H]1CC[C@]2(C(=O)n3ccnc3)CC[C@]3(C)[C@H](CC[C@@H]4[C@@]5(C)CCCNC(C)(C)[C@@H]5CC[C@]43C)[C@@H]12 ; wanted: its growth
64.5
